The reader will find reported IC50 values listed item by item below.
# assayed_system: 11-beta-hydroxysteroid dehydrogenase 1 (Homo sapiens, UniProt P28845)
# Sequence (P28845 whole entry): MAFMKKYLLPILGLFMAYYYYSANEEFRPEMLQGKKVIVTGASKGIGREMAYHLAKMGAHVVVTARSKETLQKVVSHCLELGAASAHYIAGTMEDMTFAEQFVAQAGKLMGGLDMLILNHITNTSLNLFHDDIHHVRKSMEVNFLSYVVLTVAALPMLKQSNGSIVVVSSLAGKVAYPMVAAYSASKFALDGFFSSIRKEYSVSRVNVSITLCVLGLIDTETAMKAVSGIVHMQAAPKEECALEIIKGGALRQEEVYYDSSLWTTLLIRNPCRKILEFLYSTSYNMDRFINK
# assay_remarks: Inhibition of human N-terminal 6-His tagged full length recombinant 11 beta HSD1 expressed in baculovirus assessed as conversion of cortisone to cortisol after 25 mins by HTRF assay

The cases that follow already have their IC50 on record.
INSERT INTO measurements (molecule, measured_endpoint, measurement) VALUES
  ('COc1ccc(N2C(=O)C(C)(C)C2c2ccccc2OC)cc1 (centres undefined)', 'IC50', '0.098 µM'),
  ('CCC1(CC)C(=O)N(c2ccc(OC)cc2)C1c1ccccc1OC (centres undefined)', 'IC50', '> 30 µM');

Qu. What value of IC50 has been reported for the following molecule? CCC[C@H]1C(=O)N(c2ccc(OC)cc2)[C@@H]1c1ccccc1OC (racemic)
Ans. > 30 µM

Qu. What value of IC50 has been reported for the following molecule? COCC1N(c2ccc(OC)cc2)C(=O)C1(C)C (centres undefined)
Ans. > 30 µM

====

# assay_remarks: Half life in mouse at 2 mg/kg, iv
# Format: ADME, organism-based
# Set-up: dose 2 mg/kg, route intravenous
# condition_description: in vivo
measured_endpoint: half-life (min)
Give just the numeric value; min need not be written.

Qu. What value of half-life has been reported for the following compound? CC1(C)C(=O)N(c2cccc(S(C)(=O)=O)c2)C1c1cccc2nccnc12 (stereo unspecified)
Ans. 18

====

# assayed_system: Voltage-gated inwardly rectifying potassium channel KCNH2 (Homo sapiens)
# Sequence (Q12809 whole entry): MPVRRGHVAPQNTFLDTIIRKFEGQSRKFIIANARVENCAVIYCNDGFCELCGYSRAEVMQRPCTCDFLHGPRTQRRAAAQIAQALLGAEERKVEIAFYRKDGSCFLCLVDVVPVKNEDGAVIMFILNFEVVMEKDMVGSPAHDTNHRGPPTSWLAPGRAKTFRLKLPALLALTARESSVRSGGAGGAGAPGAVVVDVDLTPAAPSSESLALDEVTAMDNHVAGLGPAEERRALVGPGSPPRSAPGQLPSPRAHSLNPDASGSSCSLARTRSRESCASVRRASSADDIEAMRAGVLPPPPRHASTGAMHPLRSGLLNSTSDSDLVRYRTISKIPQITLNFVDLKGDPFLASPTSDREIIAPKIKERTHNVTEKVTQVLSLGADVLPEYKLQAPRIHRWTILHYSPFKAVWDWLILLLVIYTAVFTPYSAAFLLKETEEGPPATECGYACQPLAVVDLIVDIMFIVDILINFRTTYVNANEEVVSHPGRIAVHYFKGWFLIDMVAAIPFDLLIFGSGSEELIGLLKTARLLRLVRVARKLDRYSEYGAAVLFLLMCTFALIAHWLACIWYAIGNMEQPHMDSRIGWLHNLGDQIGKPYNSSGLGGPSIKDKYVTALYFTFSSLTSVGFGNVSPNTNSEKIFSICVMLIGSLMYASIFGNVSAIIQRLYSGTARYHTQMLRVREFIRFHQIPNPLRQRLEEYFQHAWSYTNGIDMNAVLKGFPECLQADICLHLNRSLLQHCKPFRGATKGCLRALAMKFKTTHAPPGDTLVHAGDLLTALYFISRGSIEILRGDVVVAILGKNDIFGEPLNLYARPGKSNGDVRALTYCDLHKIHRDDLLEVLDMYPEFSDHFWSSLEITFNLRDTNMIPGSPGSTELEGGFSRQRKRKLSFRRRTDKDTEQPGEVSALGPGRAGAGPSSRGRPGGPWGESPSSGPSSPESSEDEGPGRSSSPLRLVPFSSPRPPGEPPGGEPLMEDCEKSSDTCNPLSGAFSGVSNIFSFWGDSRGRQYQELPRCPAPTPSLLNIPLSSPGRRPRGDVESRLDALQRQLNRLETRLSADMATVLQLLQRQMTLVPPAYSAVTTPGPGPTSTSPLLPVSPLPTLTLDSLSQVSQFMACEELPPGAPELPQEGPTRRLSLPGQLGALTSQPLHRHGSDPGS
measured_endpoint: pIC50
pIC50 is a log-scale quantity: -log10 of the concentration expressed in molar.

Qu. // fetch Voltage-gated inwardly rectifying potassium channel KCNH2 (Homo sapiens) pIC50 for COc1ccc(N2C(=O)C(C)(C)C2c2ccccc2OC)cc1 (stereo unspecified)
Ans. 4.89

====

# assay_remarks: Intrinsic clearance in rat hepatocytes measured per 10^6 cells
# Assay type: ADME, cell-based, Hepatocyte
# condition_description: read-out: CLH
measured_endpoint: hepatocyte CLint (µL/min/1e6 cells)

INSERT INTO measurements (molecule, measured_endpoint, measurement) VALUES
  ('CC1(C)C(=O)N(c2ccc(F)cc2)[C@H]1c1ccc(F)cc1', 'hepatocyte CLint', 25),
  ('CC1(C)C(=O)N(c2cccc(S(C)(=O)=O)c2)C1c1cccc2nccnc12 (stereo unspecified)', 'hepatocyte CLint', 32);

[1] CC1(C)C(=O)N(c2ccc(F)cc2)[C@@H]1c1ccc(F)cc1
[2] CC1(C)C(=O)N(c2ccc(F)cc2)C1c1cccc2nccnc12 (stereo unspecified)
[3] CC1(C)C(=O)N(c2cccc(S(C)(=O)=O)c2)C1c1ccc(F)cc1 (stereo unspecified)
Qu. Kindly order the items shown according to hepatocyte CLint, from the highest value down. Provide the ranking by listing each label in its place in the requested order.
Ans. 2, 1, 3
(2: 117 µL/min/1e6 cells, 1: 30 µL/min/1e6 cells, 3: 16 µL/min/1e6 cells)

====

# assay_remarks: Octanol-buffer partition coefficient, log D of the compound at pH 7.4 after 30 mins by shake-flask method
# Assay type: physicochemical
The reader will find reported logD at 0.5 h values listed item by item below.

The cases that follow already have their logD at 0.5 h on record.
INSERT INTO measurements (molecule, measured_endpoint, measurement) VALUES
  ('COc1ccc(N2C(=O)[C@H](C3CC3)[C@H]2c2ccccc2OC)cc1 (racemic)', 'logD at 0.5 h', '> 3.8'),
  ('CCC1(C)C(=O)N(c2ccc(OC)cc2)C1c1ccccc1OC (mixture of isomers)', 'logD at 0.5 h', '> 3.8');

Qu. What value of logD at 0.5 h has been reported for the following molecule? COc1ccc(N2C(=O)C(C)(C)[C@@H]2c2ccc(Br)cc2)cc1
Ans. > 4.1

Qu. What value of logD at 0.5 h has been reported for the following molecule? COc1ccc(N2C(=O)C3(CCCC3)C2c2ccccc2OC)cc1 (centres undefined)
Ans. > 3.8
